pKi: −log10 of the molar value.
pKi values for 72 kDa type IV collagenase (Homo sapiens, UniProt P08253) compiled from several publications are listed below.
outcome-measure: pKi

CNC(=O)[C@H](Cc1ccccc1)NC(=O)[C@H](CC(C)C)[C@@](O)(COC1CCCCO1)C(=O)NO (some centres unmarked) : 7.64
CNC(=O)[C@@H](NC(=O)[C@H](CC(C)C)[C@](O)(COC(=O)NC1CCCCC1)C(=O)NO)C(C)(C)C : 8.49
CC(C)CC(CC(=O)NO)C(=O)NC(Cc1c[nH]c2ccccc12)C(=O)NCCOCCOCCOCCOCCOCCOCCOCCOCCOCCOCCOCCOCCC(=O)NCc1ccc(I)cc1 (centres unmarked) : 9.21
CNC(=O)[C@@H](NC(=O)[C@H](CC(C)C)[C@@](COC1CCCCO1)(OC1CCCCO1)C(=O)NO)C(C)(C)C (some centres unmarked) : 7.40
CNC(=O)C(CCC(=O)NCCOCCOCCOCCOCCOCCOCCOCCOCCOCCOCCOCCOCCC(=O)NCc1ccc(I)cc1)NC(=O)C(CC(=O)NO)CC(C)C (centres unmarked) : 7.68
CNC(=O)[C@@H](NC(=O)[C@H](CC(C)C)[C@](O)(CO)C(=O)NO)C(C)(C)C : 8.04
NCCCC[C@H](NC(=O)CCN(C1(C(=O)NO)CCCC1)S(=O)(=O)c1ccc(Oc2ccc(F)cc2)cc1)C(=O)N[C@@H](CCCCN)C(=O)N[C@@H](CCCCN)C(=O)N[C@@H](CCCCN)C(=O)N[C@@H](CCCCN)C(=O)NCCOCCOCCOCCNC(=O)COCC(=O)N[C@@H](Cc1ccc(O)c(I)c1)C(N)=O : 8.66
CC(=O)OC[C@](O)(C(=O)NO)[C@@H](CC(C)C)C(=O)N[C@H](C(=O)Nc1ccncc1)C(C)(C)C : 8.33
CNC(=O)[C@H](Cc1ccccc1)NC(=O)[C@H](CC(C)C)C1(C(=O)NO)CC1 : 7.72
NC(=O)[C@H](Cc1ccc(O)c(I)c1)NC(=O)CCOCCOCCOCCOCCOCCOCCOCCOCCOCCOCCOCCNC(=O)CCN(C1(C(=O)NO)CCCC1)S(=O)(=O)c1ccc(Oc2ccc(F)cc2)cc1 : 9.60
CNC(=O)[C@@H](NC(=O)[C@H](CC(C)C)[C@](O)(COC(C)=O)C(=O)NO)C(C)(C)C : 8.77
